experiment: Pharmacokinetics in male SD rats (cassette dosing, IV and PO), plasma level by LC/MS/MS; format: in vivo; details: male SD rat, IV 1 mg/kg, read-out: IV t1/2
Reported half-life values for a set of compounds

{"compound": "Nc1ccc(-c2ccccc2)cc1NC(=O)c1ccc2c(c1)CC(=O)N2CCN1CCOCC1", "half-life": "60 to 300 min"}
{"compound": "Nc1ccc(-c2cccs2)cc1NC(=O)c1ccc2[nH]cnc2c1", "half-life": "600 to 900 min"}
{"compound": "CN(C)CCNc1ccc2cc(C(=O)Nc3cc(-c4cccs4)ccc3N)cnc2c1", "half-life": "60 to 300 min"}

Suppose we examine the compound COCCN(C)c1ccc2cc(C(=O)Nc3cc(-c4cccs4)ccc3N)cnc2c1 ; what half-life value has been reported?
< 30 min

Again, but for COCCNc1ccc2cc(C(=O)Nc3cc(-c4cccs4)ccc3N)cnc2c1
60 to 180 min

* * *

Listed here: compounds with reported pIC50 for HDAC3 (Homo sapiens, UniProt O15379).
pIC50: −log10 of the molar value.

{"compound": "Nc1ccc(-c2cccs2)cc1NC(=O)c1ccc2c(c1)CC(=O)N2CCN1CCOCC1", "val": "6.23 to 6.84"}

Can you look up pIC50 on HDAC3 (Homo sapiens, UniProt O15379) for Cn1cnc2cc(C(=O)Nc3cc(-c4cccs4)ccc3N)ccc21 ?
6.15 to 6.16

Again, but for Nc1ccc(-c2ccccc2)cc1NC(=O)c1ccc2c(c1)CC(=O)N2CCN1CCOCC1
5.98

Again, but for CN(C)CCNc1ccc2cc(C(=O)Nc3cc(-c4cccs4)ccc3N)ncc2c1
7.05 to 7.82

Again, but for Nc1ccc(-c2cccs2)cc1NC(=O)c1ccc2c(c1)CC(=O)N2CCN1CCCCC1
5.94 to 5.95

* * *

assay: Pharmacokinetics in male SD rats (cassette dosing, IV and PO), plasma level by LC/MS/MS; assay type: in vivo; settings: male SD rat, dose adjusted PO AUC (5 mg/kg) to IV AUC (1 mg/kg), read-out: F % (oral bioavailability)
test_readout: bioavailability

{"compound": "Nc1ccc(-c2cccs2)cc1NC(=O)c1ccc2c(c1)CC(=O)N2CC1CC1", "bioavailability": "80 to 90%"}
{"compound": "Nc1ccc(-c2cccs2)cc1NC(=O)c1ccc2[nH]cnc2c1", "bioavailability": "75 to 85%"}
{"compound": "Nc1ccc(-c2cccs2)cc1NC(=O)c1ccc2c(c1)CC(=O)N2", "bioavailability": "110 to 115%"}

Suppose we examine the compound Nc1ccc(-c2ccccc2)cc1NC(=O)c1ccc2c(c1)CC(=O)N2CCN1CCOCC1 ; what bioavailability value has been reported?
80 to 90%

Again, but for CN1C(=O)Cc2cc(C(=O)Nc3cc(-c4cccs4)ccc3N)ccc21
65 to 75%

Again, but for Nc1ccc(-c2ccccc2)cc1NC(=O)c1ccc2c(c1)CC(=O)N2CC1CC1
65 to 75%

Again, but for CN1C(=O)Cc2cc(C(=O)Nc3cc(-c4ccccc4)ccc3N)ccc21
60 to 70%

Again, but for Nc1ccc(-c2cccs2)cc1NC(=O)c1ccc2[nH]c(C3CC3)nc2c1
115 to 125%

Again, but for Nc1ccc(-c2cccs2)cc1NC(=O)c1ccc2c(c1)ncn2CCN1CCOCC1
110 to 120%

Again, but for Nc1ccc(-c2cccs2)cc1NC(=O)c1ccc2c(c1)CC(=O)N2CCN1CCOCC1
130 to 140%
